Test system: Crude diglycosidase
test_summary: Examination of pH in the conversion into isoflavone aglycons by diglycosidase using soybean materials
Format: biochemical, Penicillium multicolor IAM7153
experimental_context: pH4.8; heat treatment of enzyme: no; reaction time 6 h
The compounds listed here are annotated with their Decomposition efficiency of daidzin family in soymilk.
Answer format: numeric, % implied, no suffix.

>>> numeric_value("O=c1c(-c2ccc(O)cc2)coc2cc(O)ccc12 [daidzein]")
79.7

Give the observed Decomposition efficiency of daidzin family in soymilk of O=C(O)CC(=O)OC[C@H]1O[C@@H](Oc2ccc3c(=O)c(-c4ccc(O)cc4)coc3c2)[C@H](O)[C@@H](O)[C@@H]1O [malonyldaidzin, 6″-O-malonyldaidzin] for Crude diglycosidase.
20.3
